# TESTED ON: Hck (UniProt P08631)
# Sequence (P08631 whole entry, looked up): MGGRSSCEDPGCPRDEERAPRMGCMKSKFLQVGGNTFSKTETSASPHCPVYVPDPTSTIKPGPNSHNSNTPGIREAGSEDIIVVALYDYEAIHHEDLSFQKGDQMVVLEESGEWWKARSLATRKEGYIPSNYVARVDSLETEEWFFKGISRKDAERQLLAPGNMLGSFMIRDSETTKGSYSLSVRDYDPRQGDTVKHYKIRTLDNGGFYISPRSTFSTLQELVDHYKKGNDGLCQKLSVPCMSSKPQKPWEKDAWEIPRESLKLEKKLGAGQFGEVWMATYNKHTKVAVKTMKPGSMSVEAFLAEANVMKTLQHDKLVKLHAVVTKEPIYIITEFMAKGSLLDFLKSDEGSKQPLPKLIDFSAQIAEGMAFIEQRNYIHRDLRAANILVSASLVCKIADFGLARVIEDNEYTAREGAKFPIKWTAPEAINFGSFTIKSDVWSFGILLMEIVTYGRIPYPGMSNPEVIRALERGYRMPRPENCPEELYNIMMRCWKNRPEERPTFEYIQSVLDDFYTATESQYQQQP
# MEASUREMENT PROTOCOL: phosphorylation enrichment, bacterial display (enrichment ratio); higher = better substrate or ligand; peptides without Tyr show the background;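 also: 11-residue human phosphosite peptides and single-mutation variants displayed on the E. coli surface, counted by deep sequencing, each peptide's frequency after selection divided by its frequency in the unselected input library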;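 also: frequency after pTyr selection over input frequency; kinase dosed for 20-30% of maximal phosphorylation in three min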
Assign phosphorylation enrichment to each entry below.
// response body must contain only the number

Return phosphorylation enrichment (reported value) for this sequence: ISKKIYDPIHD [CTNNA3_Y614_T616P]
0.731

Complete the entry with phosphorylation enrichment for WFPANYVKLLN [ITSN1_Y1132_S1137N]
0.536

Note down phosphorylation enrichment recorded for VMAALYGRLFE [BTD_Y536_T532M_YF]
5.53

Output phosphorylation enrichment of PSAELYSNALP [PDGFRB_Y716]
3.02

Give a short answer stating reported phosphorylation enrichment for GIVEDYRPTFF [ACVRL1_Y421_P424T_YF] .
0.416

Give the value of phosphorylation enrichment reported for the following: PPDGEYFTLQI [TP53_Y327_L323P]
2.75

Using the record for ISDEAYVMAGV [ERBB2_Y772_L768S] , state its measured phosphorylation enrichment.
0.541

Return reported phosphorylation enrichment. Input sequence: PLQSEYSSITT [ITGB4_Y1760]
1.92

Name the recorded phosphorylation enrichment of the item ASFGPNTRVQS [FOXL2_Y258_Y258N_YF] in your answer.
0.433

Find the measured phosphorylation enrichment of LIFVSYDDWDY [GRIN2A_Y281_S278F] and report it.
0.774

Supply reported phosphorylation enrichment belonging to this sequence: YSPYDYQPCLA [TNS1_Y798]
2.41

Give a short answer stating reported phosphorylation enrichment for TSNQEYLDLSM [FGFR1_Y766] .
0.464

Consider the sequence TFQFKYPEGSS [TGM4_Y440_E437Q_YF] and give its recorded phosphorylation enrichment.
0.491

For GDAMLYYPSVS [GPR143_Y177_A173D] , write its phosphorylation enrichment.
2.77

Please look at this sequence and report its phosphorylation enrichment: KSSDVYVSYDY [SORL1_Y136]
2.18

Provide phosphorylation enrichment value for the following sequence: KGYCGYSYDDI [TMEM230_Y110_R108C]
0.563

For the sequence GVASDYKCIDP [VPS13B_Y1991] , give its reported phosphorylation enrichment.
0.747

// Input: RAIELCNDKEK [OTULIN_Y244_Y244C] . Output its phosphorylation enrichment only.
0.381

Supply recorded phosphorylation enrichment for VEDQYYRVDCY [FHL1_Y208_C209R] here.
0.993

Fill in phosphorylation enrichment for record LYEDRYLLGTS [ASS1_Y87]
3.73

State its phosphorylation enrichment for this sequence: FSEVRYVKEPF [HIPK4_Y170_YF]
0.483

Give me measured phosphorylation enrichment, please, for this sequence: TLLERYGMTKI [ACSF3_Y355_E359K]
0.478

Identify phosphorylation enrichment associated with the sequence MTFMFYRENLR [NLRP14_Y443_V441M_YF]
0.518

Tell me its phosphorylation enrichment given EQLLDYTRTVQ [INPP5E_Y439_R435Q] as the entry.
0.542

Look up phosphorylation enrichment of SWSTSYSGYRY [NKAPL_Y91] and report it.
0.701

Provide only the value of recorded phosphorylation enrichment for SVMAEYGLFRA [VSX2_Y219_G223R_YF]
5.72

Report phosphorylation enrichment, nothing else, for this sequence: PVPKTYDMLNA [PKP2_Y108_K112N]
1.07

For PLQKTYNYNML [SLC4A1_Y553_V557M] , write its phosphorylation enrichment.
0.578

Hello, please tell me recorded phosphorylation enrichment for this one: KKARAYGPGIE [FLNA_Y287]
0.405

Dear colleague, please send me the reported phosphorylation enrichment for SWSTSYSGFRF [NKAPL_Y91_YF] when you can.
0.858

Give phosphorylation enrichment for VEKEKYVSYIS [JMJD1C_Y596_M591V]
0.434

State, in one line, measured phosphorylation enrichment of YSIAQYCCRMG [LRRK2_Y2023_G2019S]
0.911

Identify measured phosphorylation enrichment corresponding to GHEYIYVDPMQ [PDGFRA_Y574]
3.75

Return value of phosphorylation enrichment for input QERPEYWDQET [HLA-A_Y83_G80R] , no commentary.
0.696

Provide one value: measured phosphorylation enrichment of QEIATYPRLLE [KRT14_Y415_R416P]
0.845

Please indicate phosphorylation enrichment recorded for "GYITSYREEEQ"
0.543

In one line, give reported phosphorylation enrichment of the entry SKNSKCNAEST [PSEN1_Y315_Y315C] .
0.499

Determine its reported phosphorylation enrichment: FDGKDYIALNE [HLA-A_Y147_YF]
0.6

Give recorded phosphorylation enrichment. ELCSEYRKSRK [SPINK5_Y440]
0.412

Give the reported value of phosphorylation enrichment for this record: QRALLYEDTLF [UNC13D_Y56_A59T_YF]
1.65

Please report phosphorylation enrichment for the following sequence: LHRAHYDLCHT [AHSG_Y314_R317C]
0.47

// fetch phosphorylation enrichment given entry EKKDLYKAGEQ [CFH_Y1008_V1007L]
0.374

Look up phosphorylation enrichment of DCPASYKKKSM [PDGFRA_Y768_R764C] and report it.
0.368

Supply recorded phosphorylation enrichment for VHSGTYQVTVC [MYBPC3_Y1043_R1048C] here.
0.588

Determine its reported phosphorylation enrichment: ARAGEYGAEAL [HBA1_Y25_H21R]
0.432

// fetch phosphorylation enrichment given entry CSTIHYNYMCN [TP53_Y234_T230S]
0.399

Return value of phosphorylation enrichment for input PMQLPYDSTWE [PDGFRB_Y589] , no commentary.
0.554

Give the value of phosphorylation enrichment reported for the following: SSREGYVRHHN [FAM83B_Y433_S435R]
0.387

Look up and state reported phosphorylation enrichment for LEEFQYIGELQ [MSH2_Y856_S860L]
0.908

Given QPTPGYEVGQR [TSC2_Y1788_E1783Q] , respond with its phosphorylation enrichment.
0.535

Answer with the recorded phosphorylation enrichment of CPPKVYELMIA [ABL2_Y515_R519I] only.
1.03

Consider the sequence NLPGGYSGSVK [MCPH1_Y606] and give its recorded phosphorylation enrichment.
0.447

Read off the recorded phosphorylation enrichment for ACQGKYTPSGQ [ALDOA_Y343]
0.46

Name the recorded phosphorylation enrichment of the sequence listed here: IFLENYNAGTF [CFI_Y421_H418L_YF]
0.427

Please list phosphorylation enrichment recorded for the sequence RRAKGYPINLY [ITGB2_Y125_D128N]
0.912

For the sequence AHAGGYGAEAL [HBA1_Y25_E24G] , give its reported phosphorylation enrichment.
0.454

Please list phosphorylation enrichment recorded for the sequence LQLLGDRPVYS [CHST6_Y358_Y358D]
1.37
